The measured values listed here are drawn from PubChem BioAssay (NCI).

Tested on: T-47D breast
runDescription: NCI tumour cell line growth inhibition, 48 h
Assign TGI to each entry below.

For the compound C(=N\c1nc2cc3sc(/N=C/c4ccccc4)nc3cc2s1)/c1ccccc1 , give its reported TGI.
> 100 µM

For the compound CN(C)c1ccc(/C=N/NC(N)=S)nc1 , give its reported TGI.
> 100 µM

For the compound O=C(O)c1nc2cc(Cl)ccc2[nH]c1=O , give its reported TGI.
> 100 µM

* * *

System: MDA-MB-231 breast
runDescription: NCI tumour cell line growth inhibition, 48 h
measuredQuantity: TGI

Would you please give the reported TGI of CCC(CC)n1cnc2c(-c3cnc(N)cn3)nc(N3CC4CCC(C3)O4)nc21 with MDA-MB-231 breast?
> 100 µM

Would you please give the reported TGI of CCOC(=O)C12CCC(=O)N1N(C)c1ncccc1N2 (stereo not given) with MDA-MB-231 breast?
> 100 µM

Would you please give the reported TGI of O=C(O)c1nc2cc(Cl)ccc2[nH]c1=O with MDA-MB-231 breast?
> 100 µM

Would you please give the reported TGI of C[C@H](Nc1nc(N)c(N=O)c(=O)n1C)C(=O)O with MDA-MB-231 breast?
> 10 µM

Would you please give the reported TGI of CN(C)Cc1cc(Cl)c(O)c(CN(C)C)c1 with MDA-MB-231 breast?
> 100 µM

Would you please give the reported TGI of O=C(Nc1ccccc1)N(CCN(Cc1ccccc1)C(=O)Nc1ccccc1)CCN(Nc1ccccc1)C(=O)Nc1ccccc1 with MDA-MB-231 breast?
> 100 µM

Would you please give the reported TGI of CN1C(=O)CCC(N2C(=O)c3cccc(NCCOCCOCCNC(=O)c4cc5c(o4)C(=O)c4ccccc4C5=O)c3C2=O)C1=O (stereo not given) with MDA-MB-231 breast?
8.77 µM

Would you please give the reported TGI of Nc1ncnc2c1ncn2[C@H]1C=C[C@@H](NO)C1 with MDA-MB-231 breast?
> 100 µM

Would you please give the reported TGI of S=C(NCc1ccccc1)Nc1sc(=NCc2ccccc2)nc2sc3c(c12)CCN(N1CCc2c(sc4nc(=NCc5ccccc5)sc(NC(=S)NCc5ccccc5)c24)C1)C3 with MDA-MB-231 breast?
> 44 µM

Would you please give the reported TGI of CCOC(=O)c1[nH]c2cc(Cl)ccc2c1[C@@H](C(=O)NC(C)(C)C)N(CC)C(=O)CCCCC#Cc1cccc2c1CN(C1CCC(=O)NC1=O)C2=O (stereo not given in full) with MDA-MB-231 breast?
1.68 µM

Would you please give the reported TGI of Oc1ccccc1-c1nn(CNc2ccc(Cl)cc2)c(=S)o1 with MDA-MB-231 breast?
> 100 µM

Would you please give the reported TGI of C#CC1(O)CCC2[C@@H]3CCc4cc(Oc5nc(F)nc(-c6c(C)c(C(=O)OCC)n7ccccc67)n5)ccc4C3CC[C@@]21C (stereo not given in full) with MDA-MB-231 breast?
> 100 µM

Would you please give the reported TGI of CN(C)CCNc1ccc2ncn3c4ccc(O)cc4c(=O)c1c23 with MDA-MB-231 breast?
5.44 µM

Would you please give the reported TGI of O=C1c2c(c(=O)[nH]c3ccccc23)[C@H](c2ccccc2)[C@@H]2CCCN12 with MDA-MB-231 breast?
27.5 µM

Would you please give the reported TGI of COc1ccc(/C=C2\N=C(N3CCCC(CO)C3)NC2=O)cc1 (stereo not given) with MDA-MB-231 breast?
> 100 µM

Would you please give the reported TGI of Cc1c(CN2CCN(C(=O)[C@H](C)O)CC2)sc2c(N3CCOCC3)nc(-c3cnc(N)nc3)nc12 with MDA-MB-231 breast?
> 40.6 µM

Would you please give the reported TGI of COc1cc2nc(Nc3cccc(Cl)c3)nc(N)c2cc1OC with MDA-MB-231 breast?
14.5 µM

Would you please give the reported TGI of O=c1[nH]c(NCc2cccnc2)nc2nc[nH]c12 with MDA-MB-231 breast?
> 100 µM

Would you please give the reported TGI of CCOC(=O)c1c(O)cn2c1[nH]c1cccc3cccc2c31 with MDA-MB-231 breast?
> 100 µM

Would you please give the reported TGI of Nc1ncc(-c2ccc3ncnc(Nc4cccc(Cl)c4)c3c2)cn1 with MDA-MB-231 breast?
> 100 µM

* * *

Assign TGI to each entry below.
System: M19-MEL melanoma
runDescription: NCI tumour cell line growth inhibition, 48 h

For the molecule O=C(C[n+]1ccccc1)N/N=C(/CCC(=O)N(Cc1ccccc1)Cc1ccccc1)CC(=O)c1ccccc1 , give its reported TGI.
> 100 µM

For the molecule O=C(CC1(O)C(=O)Nc2c(Cl)cc(Cl)cc21)c1ccccc1 (stereo unspecified) , give its reported TGI.
> 100 µM

For the molecule CC#Cc1c(O)c2c(c(O)c1C#CC)C(=O)c1ccccc1C2=O , give its reported TGI.
> 100 µM

For the molecule COc1ccc(C(=O)C2CCC(C(=O)O)C2)cc1 (stereo unspecified) , give its reported TGI.
> 100 µM

For the molecule CCOC(=O)C1(C(=O)OCC)C(C(C)(C)C)=C(C)c2ccccc21 , give its reported TGI.
38.8 µM

For the molecule O=C(O)Cc1cccc2c(=O)cc(-c3ccccc3)oc12 , give its reported TGI.
> 250 µM

For the molecule COc1ccc(CC(=O)NCCc2ccc(OC)c(OC)c2OC)cc1 , give its reported TGI.
> 100 µM

For the molecule CC(C)(C)C1=CC(=N/N=c2\scc(-c3ccccc3)n2-c2ccccc2)C=C(C(C)(C)C)C1=O , give its reported TGI.
> 100 µM

For the molecule CCOC(=O)C12CCCC1(O)N(NC(=O)OC)C(C)=C2C(=O)OC (stereo unspecified) , give its reported TGI.
> 100 µM

For the molecule NC(=S)N1N=C2CCCCCC[C@@H]2[C@H]1c1ccccc1 , give its reported TGI.
> 100 µM

For the molecule c1ccc(SC(Sc2ccccc2)=C2CCC2)cc1 , give its reported TGI.
> 100 µM

* * *

Tested on: SK-MEL-2 melanoma
runDescription: NCI tumour cell line growth inhibition, 48 h
measuredQuantity: TGI

For the compound CCSC[C@@H]1C[C@](O)(c2ccc(Cl)cc2)[C@@H](c2ccc(Cl)cc2)O1 , give its reported TGI.
35 µM

For the compound CN1CCC2(CC1)SSC1(CCN(C)CC1)S2 , give its reported TGI.
> 100 µM

For the compound Cn1c(-c2ccco2)ccc1-c1ccc(C=O)o1 , give its reported TGI.
> 100 µM

For the compound c1ccc2c3c(ccc2c1)-c1[nH]ncc1CCO3 , give its reported TGI.
85.3 µM

For the compound CCn1c(SCC(=O)N/N=C2\SCC(=O)N2c2ccc(C)cc2)nc2ccccc2c1=O , give its reported TGI.
> 100 µM

For the compound COc1ccc(S(=O)(=O)Nc2ccc(-c3csc(N4C(=O)/C(=C/c5ccccc5[N+](=O)[O-])N=C4c4ccccc4)n3)cc2)cc1Cl , give its reported TGI.
> 100 µM

For the compound c1ccc(SC(Sc2ccccc2)=C2CCC2)cc1 , give its reported TGI.
> 100 µM

For the compound COc1ccc(N2C(=O)C3CC(c4ccc(Br)cc4)c4c([nH]c5ccccc45)C3C2=O)cc1 (stereo not given) , give its reported TGI.
> 100 µM

For the compound COc1cc(-n2ccnc2-c2ccc3ccccc3c2)cc(OC)c1OC , give its reported TGI.
26.9 µM

For the compound O=[N+]([O-])c1ccc(-c2csc(N=Nc3c(O)[nH]c4ccccc34)n2)cc1 , give its reported TGI.
84.2 µM

For the compound COc1cnc2c(c1)C(=O)c1c-2n(CCCN2CCCC2)c(=O)c2cc([N+](=O)[O-])ccc12 , give its reported TGI.
15.9 µM

For the compound COC(=O)C1=CO[C@@H](C)[C@@H]2Cn3ccc4c5ccccc5nc-4c3C[C@H]12 , give its reported TGI.
> 100 µM

For the compound COc1ccc(CC(=O)NCCc2ccc(OC)c(OC)c2OC)cc1 , give its reported TGI.
> 100 µM

For the compound COC(=O)C(Cc1c[nH]c2ccccc12)NC(=O)C(Cc1cnc[nH]1)NC(=O)C1CCC(=O)N1C(=O)OCc1ccccc1 (stereo not given) , give its reported TGI.
> 100 µM

For the compound COC(=O)C1CCC(=O)N1C(c1ccc(OC)cc1)c1cc(OC)c(OC)c(OC)c1 (stereo not given) , give its reported TGI.
> 100 µM

For the compound FC1(F)ON2CCc3ccccc3C2[C@H]1c1ccccc1 (stereo not given in full) , give its reported TGI.
> 100 µM

For the compound COC(=O)[C@H](Cc1ccccc1)NC(=O)c1ccc(CNC(=O)/C=C/c2ccc(OCc3ccccc3)cc2)cc1 , give its reported TGI.
7.92 µM

For the compound OC1CC2CCC(C1)N2CCCN1c2ccccc2Sc2ccc(Cl)cc21 (stereo not given) , give its reported TGI.
3.29 µM

For the compound CCOC(=O)c1c(N)sc2c1CC(C)CC2 (stereo not given) , give its reported TGI.
> 100 µM

For the compound NCCCCC(NC(=O)C(N)CCCN=C(N)N)C(=O)NC(CCCCN)C(=O)NC(CCCN=C(N)N)C(=O)NC(CCCN=C(N)N)C(=O)NC(CCC(N)=O)C(=O)NC(CCCN=C(N)N)C(=O)NC(CCCN=C(N)N)C(=O)NC(CCCN=C(N)N)C(=O)NCC(=O)NCC(=O)O (stereo not given) , give its reported TGI.
> 50 µM

For the compound Cc1cccc(-c2nnc3s/c(=C\c4ccc(N(C)C)cc4)c(=O)n23)c1 , give its reported TGI.
> 100 µM

For the compound C#C[C@]1(O)CC[C@H]2[C@@H]3CCC4=C/C(=N\OCCN5CCCCC5)CC[C@]4(C)[C@H]3CC[C@@]21C , give its reported TGI.
8.76 µM

For the compound COC(=O)c1cc2c(c(C(=O)OC)c1)CCC2 , give its reported TGI.
> 100 µM

For the compound NC(=O)CC1OC(=O)Cc2cc3c(c(O)c21)C(=O)c1c(O)cccc1C3=O (stereo not given) , give its reported TGI.
> 100 µM

For the compound COc1ccc2c(c1)c1c3c(ccc4ncn2c43)N(CCO)CCN=1 , give its reported TGI.
0.359 µM

For the compound CN(C)c1ccc(/C=N/NC(N)=S)nc1 , give its reported TGI.
> 100 µM

For the compound COc1c2c(c3c(c1OC)c(=O)c1ccccc1n3C)OCO2 , give its reported TGI.
> 100 µM

For the compound Cc1ccc(NCC2(/N=C/c3ccccc3)OC(CO)C(O)C2O)cc1 (stereo not given) , give its reported TGI.
> 100 µM

For the compound CN1C(=O)CCC(N2C(=O)c3cccc(NCCOCCOCCNC(=O)c4cc5c(o4)C(=O)c4ccccc4C5=O)c3C2=O)C1=O (stereo not given) , give its reported TGI.
6.49 µM

For the compound COC1OC2COC1(OCc1ccccc1)C1OC(C)(C)OC21 (stereo not given) , give its reported TGI.
> 100 µM

For the compound CCOC(=O)C12CCCC1(O)N(NC(=O)OC)C(C)=C2C(=O)OC (stereo not given) , give its reported TGI.
47.3 µM

For the compound O=c1[nH]c(NCc2cccnc2)nc2nc[nH]c12 , give its reported TGI.
> 100 µM

For the compound CN(C)CCNc1ccc2ncn3c4ccc(O)cc4c(=O)c1c23 , give its reported TGI.
13 µM

For the compound CCC[CH2][Sn](=[O])[CH2]CCC , give its reported TGI.
> 50 µM

For the compound COc1ccc(Nc2nc(NCCNc3ccnc4cc(Cl)ccc34)nc(N3CCOCC3)n2)cc1 , give its reported TGI.
4.28 µM

For the compound CCOC(=O)C(NC(=O)c1cccc(Cl)c1)(Nc1ccc(S(=O)(=O)Nc2cc(C)on2)cc1)C(F)(F)F (stereo not given) , give its reported TGI.
> 100 µM

For the compound COc1ccc2c(c1)c(-c1nc(-c3cn(C)c4ccncc34)cs1)cn2C , give its reported TGI.
3.28 µM

For the compound COC(=O)C1=C(C)NC(=O)N2[C@@H](CCOCc3ccccc3)CC[C@@H]12 , give its reported TGI.
> 50 µM

For the compound Cc1nc(OCc2ccccc2)c2ncn(CCO)c2n1 , give its reported TGI.
> 100 µM

For the compound CC#Cc1c(O)c2c(c(O)c1C#CC)C(=O)c1ccccc1C2=O , give its reported TGI.
> 100 µM
